# System: SR
# experiment: NCI tumour cell line growth inhibition, 48 h
Active and inactive are the calls of the source. Cut-off read from the data, not from the text of the source: active = GI50 up to about 1.1 µM and inactive = higher.
Classes used: true = active, false = inactive

CC(C)OC(=O)c1ccc(NCC2=CC(=O)C=CC2=O)cc1Cl ... false
COC1(OC)C2(Cl)C(Cl)=C(Cl)C1(Cl)C1c3ccc(C(C)=O)c4cccc(c34)C12 (stereo not given) ... false
COC(=O)C([C@H]1CC[C@H](OCc2ccccc2)[C@@]1(O)COCc1ccccc1)C(C)(O)CCc1ccccc1 (stereo not given in full) ... false
O=c1c2c(-c3ccccc3)c3ccccc3nc2cnn1-c1ccccc1 ... false
CC1C(=O)C(C)C(c2ccccc2)N(C)C1c1ccccc1 (stereo not given) ... false
CC(C)Cc1ccc(C(C)/C=C2\CCC(CN3CCOCC3)C2=O)cc1 (stereo not given) ... false
Cc1ccc(S(=O)(=O)N/N=C/C2(c3ccccc3)c3ccccc3-c3ccccc32)cc1 ... false
O=C1C2C3C4C1C1C2[C@H](OCc2ccccc2)C3C1[C@H]4OCc1ccccc1 (stereo not given in full) ... false
O=[N+]([O-])c1ccc(/C=C(/c2ccc([N+](=O)[O-])o2)S(=O)(=O)c2ccccc2)o1 ... true
S=c1[nH]nc(Cc2ccccc2)c(=S)[nH]1 ... false

---

# System: OVCAR-4
# experiment: NCI tumour cell line growth inhibition, 48 h
Calls of active or inactive are those of the source. No stated cut-off is given here; in the data, active = GI50 up to about 1.1 µM and inactive = higher.
quantity: GI50

COc1ccc2c3c1OC1C34CCN(C)C(C2)C4=CC(I)C1(OC)OC (configuration not stated) ... 13.2 µM (inactive)
O=C(CC1(O)C(=O)Nc2c(Cl)cccc21)c1ccccc1 (configuration not stated) ... 60 µM (inactive)
CCOc1ccc(NCC2CC/C(=C\c3ccc(O)cc3)C2=O)cc1 (configuration not stated) ... 17.2 µM (inactive)
Cc1ccc(S(=O)(=O)N/N=C/C2(c3ccccc3)c3ccccc3-c3ccccc32)cc1 ... 10.3 µM (inactive)
CC(=O)NC(C)c1ccc(/N=N/N2CCCC2)cc1 (configuration not stated) ... > 100 µM (inactive)
O=Cc1cc(O)c(O)c(/C=N/n2c3ccccc3c3ccccc32)c1 ... 2.17 µM (inactive)
Cc1cccc2c1C(=O)C(C1OC(=O)c3ccccc31)C2 (configuration not stated) ... > 100 µM (inactive)
COc1nc(=O)n(C2CC(F)C(CO)O2)cc1C (configuration not stated) ... > 100 µM (inactive)
CCC1=C(C)/C(=C/c2[nH]c(CBr)c(CC)c2C)N=C1CBr ... 13 µM (inactive)
COC(=O)C([C@H]1CC[C@H](OCc2ccccc2)[C@@]1(O)COCc1ccccc1)C(C)(O)CCc1ccccc1 (some centres not stated) ... 17.1 µM (inactive)
O=C(O)c1c(-c2c3ccc(=O)cc-3oc3cc(O)ccc23)cc2ccccc2c1-c1ccccc1 ... > 100 µM (inactive)
O=C1C2C3C4C1C1C2[C@H](OCc2ccccc2)C3C1[C@H]4OCc1ccccc1 (some centres not stated) ... 70.3 µM (inactive)
CCOC(=O)CNC(=O)CNC(=O)CNC(=O)CNNc1c(OCc2ccccc2)c(=O)c1=O ... > 100 µM (inactive)
COc1cccc(/C=C2\CCC(C)(CN(C)C)C2=O)c1 (configuration not stated) ... 98.4 µM (inactive)
C[C@H](CCC(=O)O)[C@H]1CC[C@H]2[C@@H]3[C@@H](O)C[C@@H]4C[C@H](O)CC[C@]4(C)[C@H]3CC[C@]12C [URSODIOL] ... > 100 µM (inactive)
CC(C)=CCC[C@@H](C)C1=C(Nc2ccccc2)C(=O)C(C)=C(O)C1=O ... 6.62 µM (inactive)
COc1ccc(-c2cc(-c3ccccc3)nc(N)n2)c(O)c1 ... > 74.6 µM (inactive)
CSc1nc(Cl)c2c(n1)Sc1nc3ccccc3n1C2O (configuration not stated) ... 17.2 µM (inactive)
O=C(/C=C/c1cccc([N+](=O)[O-])c1)N1CCN(CCOC(c2ccccc2)c2ccccc2)CC1 ... 29.9 µM (inactive)
C/C(=N\NC(N)=S)c1ccc2c(c1)Sc1ccccc1O2 ... 2.47 µM (inactive)
Cc1cc(C)c(-c2noc(-c3ccc(Cl)cc3)c2C2=NCCN2)c(C)c1 ... 78.9 µM (inactive)
CC(=O)n1nc(-c2nc3ccccc3nc2Cl)cc1Cl ... 19.5 µM (inactive)
